system-under-test: Lysine-specific demethylase 4C (Homo sapiens, UniProt Q9H3R0)
Sequence (Q9H3R0 whole entry): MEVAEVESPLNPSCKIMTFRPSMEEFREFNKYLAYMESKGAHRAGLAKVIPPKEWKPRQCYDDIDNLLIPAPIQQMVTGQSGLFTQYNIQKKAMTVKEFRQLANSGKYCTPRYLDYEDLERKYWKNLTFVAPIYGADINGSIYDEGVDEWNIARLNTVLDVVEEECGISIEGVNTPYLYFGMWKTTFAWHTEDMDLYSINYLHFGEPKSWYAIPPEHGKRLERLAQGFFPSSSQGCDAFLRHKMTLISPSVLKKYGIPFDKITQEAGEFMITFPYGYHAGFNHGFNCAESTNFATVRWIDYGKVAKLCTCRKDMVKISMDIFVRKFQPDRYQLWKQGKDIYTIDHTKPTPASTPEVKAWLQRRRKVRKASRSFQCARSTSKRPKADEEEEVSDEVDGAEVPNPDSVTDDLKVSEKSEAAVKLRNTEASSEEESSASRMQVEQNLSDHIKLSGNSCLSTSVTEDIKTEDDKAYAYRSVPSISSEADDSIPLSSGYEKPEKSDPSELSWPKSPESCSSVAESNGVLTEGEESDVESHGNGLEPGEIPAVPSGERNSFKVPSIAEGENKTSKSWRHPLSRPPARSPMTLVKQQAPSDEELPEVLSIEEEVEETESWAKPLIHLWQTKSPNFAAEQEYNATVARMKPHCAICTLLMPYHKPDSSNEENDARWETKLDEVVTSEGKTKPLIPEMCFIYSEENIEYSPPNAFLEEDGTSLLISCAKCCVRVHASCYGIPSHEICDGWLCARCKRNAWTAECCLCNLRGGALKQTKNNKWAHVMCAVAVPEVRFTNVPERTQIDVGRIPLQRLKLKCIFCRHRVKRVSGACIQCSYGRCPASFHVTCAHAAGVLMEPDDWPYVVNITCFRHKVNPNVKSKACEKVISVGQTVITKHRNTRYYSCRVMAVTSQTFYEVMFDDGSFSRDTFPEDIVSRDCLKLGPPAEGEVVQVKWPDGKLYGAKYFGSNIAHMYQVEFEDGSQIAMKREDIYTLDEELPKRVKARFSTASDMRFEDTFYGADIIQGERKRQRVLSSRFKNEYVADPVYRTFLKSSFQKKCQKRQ
assay: Enzymatic Assay: The ability of test compounds to inhibit the activity of JMJD2C was determined in 384-well plate format under the following reaction conditions: 0.3 nM JMJD2C, 300 nM H3K9me3-biotin labeled peptide (Anaspec cat #64360), 2 μM alpha-ketoglutaric acid in assay buffer of 50 mM HEPES, pH7.3, 0.005% Brij35, 0.5 mM TCEP, 0.2 mg/ml BSA, 50 μM sodium L-ascorbate, and 2 μM ammonium iron(II) sulfate. Reaction product was determined quantitatively by TR-FRET after the addition of detection reagent Phycolink Streptavidin-allophycocyanin (Prozyme) and Europium-anti-di-methylated histone H3 lysine 9 (H3K9me2) antibody (PerkinElmer) in the presence of 5 mM EDTA in LANCE detection buffer (PerkinElmer) at a final concentration of 50 nM and 1 nM, respectively.The assay reaction was initiated by the following: 2 μl of the mixture of 900 nM H3K9me3-biotin labeled peptide and 6 μM alpha-ketoglutaric acid with 2 μl of 11-point serial diluted inhibitor in 3% DMSO were added to each well of the plate, followed by the addition of 2 μl of 0.9 nM JMJD2C to initiate the reaction. The reaction mixture was incubated at room temperature for 30 minutes, and terminated by the addition of 6 μl of 5 mM EDTA in LANCE detection buffer containing 100 nM Phycolink Streptavidin-allophycocyanin and 2 nM Europium-anti-H3K9me2 antibody. Plates were read by EnVisionMultilabel Reader in TR-FRET mode (excitation at 320 nm, emission at 615 nm and 665 nm) after 1 hour incubation at room temperature. A ratio was calculated (665/615) for each well and fitted to determine inhibition constant (IC50).
property-name: IC50

* O=C(O)c1ccncc1NCC1CCc2ccccc21 (stereo unspecified) | < 100 nM
